ASSAY PROCEDURE: NCI Yeast Anticancer Drug Screen. Data for the mec2-1 strain (AID 157)
CONDITION SUMMARY: S. cerevisiae mec2-1 strain, at 50.0 µM, stronger effect = higher value
This is part of a sample that, as a whole, favours compounds with a hit. Of some 79,000 tested, about 15% had one in any assay.
ENDPOINT: growth inhibition (%)
Numbers only, in %.

| COMPOUND | growth inhibition [%] |
| --- | --- |
| CN1C2CCC1CC(OC(=O)C(O)c1ccccc1)C2 (stereo unspecified) | -3.75 |
| CC(C)C(C(=O)c1ccccc1)c1ccccc1 (stereo unspecified) | -10.1 |
| Cc1ccc(N2CSC(=S)N(c3ccc(C)cc3)C2)cc1 | -25.9 |

Hi, could you look up growth inhibition for each item in my list?
1. Cc1ccc(-c2noc(CC(=O)c3ccc([N+](=O)[O-])cc3)n2)cc1
2. C=CC(COC(=O)C(C)(C)OC(C)=O)c1ccc(OC(=O)C(C)C)c(OC)c1 (stereo unspecified)
3. O=Cc1ccc2c(c1Cl)C(=O)c1ccccc1C2=O

## Result
1: 5.85; 2: -2.75; 3: 43.2

---

ASSAY PROCEDURE: NCI Yeast Anticancer Drug Screen. Data for the sgs1 mgt1 strain (AID 161);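 also: 0% = growth of cultures given vehicle only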
CONDITION SUMMARY: S. cerevisiae sgs1 mgt1 strain, at 50.0 µM, stronger effect = higher value
Compounds without any hit were thinned out: in the full panel of roughly 79,000, 15% have a hit.
Lab note: anything with growth inhibition at or over 20% counts as satisfied; the rest go in not satisfied.

As a guide, the following entries are already answered.
| COMPOUND | LABEL |
| --- | --- |
| CNC(=S)/C(=N\Nc1nc[nH]c1C(N)=O)C(N)=S | satisfied |
| CC(=O)C1=C(C)N2C(=NC3=C(CCc4ccccc43)C2c2cccc(Br)c2)S1 (stereo not given) | not satisfied |
| COc1c2c(c3c(c1OC)c(=O)c1ccccc1n3C)OCO2 | not satisfied |
| O=C(O)CCCC(=O)Nn1c(Cc2ccc(Cl)cc2)n[nH]c1=O | satisfied |
| COc1c(OC)c(OC)c2c(c1OC)c(=O)c1ccccc1n2C | satisfied |
| CCO/C=N\C1=C(C#N)SC2=N/C(=C\c3ccc(OC)cc3)C(=O)N21 | not satisfied |

## Task Exam item: decide whether the reported growth inhibition for COC(=O)C1CCC(=O)N1CN(C(C)=O)c1cccc(O)c1 (stereo not given) is at least 20%.
## Result not satisfied

## Task Also CC(=N/N=C/c1ccccn1)/C(C)=N/N=C(C)/C(C)=N/N=C(C)/C(C)=N/N=C(C)/C(C)=N\N=C\c1ccccn1 , if possible.
## Result not satisfied

## Task Try this compound too: Cc1ccc(/C=N/Nc2cnccn2)s1
## Result not satisfied

## Task Field entry: NC(=O)CC1OC(=O)Cc2cc3c(c(O)c21)C(=O)c1c(O)cccc1C3=O (stereo not given)
## Result satisfied

---

Task for the reader: assign each of the following compounds its reported growth inhibition.
ASSAY PROCEDURE: NCI Yeast Anticancer Drug Screen. Data for the mlh1 rad18 strain (AID 175)
CONDITION SUMMARY: S. cerevisiae mlh1 rad18 strain growth inhibition; at 50.0 µM; stronger effect = higher value
This is part of a sample that, as a whole, favours compounds with a hit. Of some 79,000 tested, about 15% had one in any assay.
Give bare numbers, in %.

| COMPOUND | VALUE UNITS | growth inhibition |
| --- | --- | --- |
| O=C1Nc2ccccc2CCc2ccccc21 | % | -7.2 |
| COc1ccc(-c2cc(=O)c3c(C)cc(O)cc3o2)cc1 | % | 37.9 |
| O=S(=O)(O)c1ccc(-c2ccccc2)cc1 | % | -5.4 |
| CC(C)O/N=C/c1cc(NC(=S)OC(C)C)ccc1Cl | % | -57.5 |

Please look at the items below and tell me growth inhibition for each one, in order.
1. CCOC(=O)c1sc(N)c(C(=O)OCC)c1C
2. CN(C)c1ccc(P(c2ccc(N(C)C)cc2)c2ccc(N(C)C)cc2)cc1
3. C(=N\N=C\c1c[nH]c2ccccc12)/c1c[nH]c2ccccc12
4. CSc1sc2cc([N+](=O)[O-])ccc2[n+]1C
5. Clc1c(Cl)c(Cl)c2nn(C3CCCO3)nc2c1Cl (stereo unspecified)
6. Cc1ccc2oc(C)[n+](CCC(=O)O)c2c1
7. CC/C(=C\c1cccc([N+](=O)[O-])c1)C(=O)O
8. Cc1ccc(NC(=S)N(C)C)cc1C

## Result
1. -20.1
2. -25.2
3. 0.25
4. 55.4
5. -45.6
6. 42
7. -5.55
8. 1.1

Quick request: growth inhibition for each listed item, please.
1. O=C(O)C(=O)C(O)C(O)C(O)CO.O=C(O)C(=O)C(O)C(O)C(O)CO.[NH-]C1CCCCC1[NH-].[Pt+2] (stereo unspecified)
2. CCn1c(C)[n+](CC)c2ccc(C(F)(F)F)cc21
3. O=C(CN1CCOCC1)Nc1cccc(C(F)(F)F)c1
4. O=C1c2ccccc2C(=O)N1/N=C/c1cc(Cl)cc(Cl)c1O
5. CCCCCCCCCCCCCCCCOc1ccc(C)cc1
6. Nc1ccccc1SC1CC(=O)N(c2ccccc2Cl)C1=O (stereo unspecified)
7. O=C(O)c1n[nH]nc1Cl

## Result
1: -53.1; 2: 14.9; 3: -35.4; 4: -4.95; 5: -27.9; 6: -6.5; 7: 19.2

Please give growth inhibition for each item listed below.
1. CC(=O)CC(=O)N1CCN(C(=O)CC(C)=O)CC1
2. CCOc1ccc(Br)cc1/C=C1\N=C(c2ccccc2)OC1=O
3. C[n+]1ccc(/C=C\c2ccc3c(c2)OCO3)cc1
4. CCOC(=O)CCc1ccc(O)c(O)c1
5. ClCCCC1(CCCCl)OCCO1

## Result
1: -23.3; 2: 1.7; 3: 2.6; 4: 15.6; 5: -2.2

For every listed record, write down its growth inhibition.
1. O=C(O)c1cc(C(=O)O)cc([N+](=O)[O-])c1
2. COc1ccccc1-c1n[nH]c(-c2ccccc2O)n1

## Result
1: 7.35; 2: -54.1

---

ASSAY PROCEDURE: NCI Yeast Anticancer Drug Screen. Data for the rad50 strain (AID 155);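 also: 0% = growth of vehicle-only cultures of the same strain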
CONDITION SUMMARY: S. cerevisiae rad50 strain growth inhibition; at 50.0 µM; stronger effect = higher value
This is part of a sample that, as a whole, favours compounds with a hit. Of some 79,000 tested, about 15% had one in any assay.
ENDPOINT: growth inhibition (%)
One number for each entry, in %.

| COMPOUND | VALUE UNITS | growth inhibition |
| --- | --- | --- |
| Cc1cccc(NNC(=S)Nc2ccccc2)c1 | % | 18.1 |

List the reported growth inhibition of each compound below.
1. O=c1oc(/C=C/c2ccccc2)nc2cc(Cl)ccc12
2. CCOc1cc2c(cc1O)C=C[C@@H]1[C@@H]2CC[C@]2(C)[C@@H](O)CC[C@@H]12
3. Clc1ccc(C2NN=C3c4ccccc4OCC32)cc1 (stereo not drawn)
4. CCCCCCCCCC(=O)CC(=O)c1c(O)cc(O)cc1O
5. COc1ccccc1Oc1ccc(N=Cc2ccc(C)cc2)cc1
6. Nc1ccc(I)cc1Cl

## Result
1. 19.6
2. 33.8
3. -7.85
4. 87.8
5. -16.4
6. 15.8

Would you mind listing growth inhibition for each of the following compounds?
1. CCN(CC)c1cc(C(C)(C)C)cc(C(C)(C)C)c1
2. CNC(=S)/C(=N\Nc1nc[nH]c1C(N)=O)C(N)=S
3. COc1cc(C2N(c3ccccc3)CCN2c2ccccc2)cc(OC)c1OC
4. O=C1CC(c2ccccc2)NCCCCN2CC(CN1)C(C(O)c1ccccc1)C2=O (stereo not drawn)
5. COc1cccc(CNc2ccc(SC)cc2)c1OC
6. COc1ccc(C(C#N)N2CCCC2)cc1 (stereo not drawn)

## Result
0.45
-3.7
59
-20.4
10.2
-21.9

---

ASSAY PROCEDURE: NCI Yeast Anticancer Drug Screen. Data for the sgs1 mgt1 strain (AID 161);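 also: 0% = growth of cultures given vehicle only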
CONDITION SUMMARY: S. cerevisiae sgs1 mgt1 strain, at 50.0 µM, stronger effect = higher value
Compounds without any hit were thinned out: in the full panel of roughly 79,000, 15% have a hit.
Hi there, I'd appreciate the recorded growth inhibition for every entry that follows.
Numbers only, in %.

// batch mode: one growth inhibition value per listed entry
1. C=C1C(=O)O[C@H]2C[C@@]3(C)[C@H](O)CCC(=C)[C@@H]3[C@@H](OC(C)=O)[C@H]12
2. NC(Cc1ccc(S(=O)(=O)O)cc1)C(=O)NC(Cc1ccc(S(=O)(=O)O)cc1)C(=O)NC(Cc1ccc(S(=O)(=O)O)cc1)C(=O)NC(Cc1ccc(S(=O)(=O)O)cc1)C(=O)O (centres undefined)
3. Cc1ccc(NC(=O)/C(Cc2cc(=O)oc3cc(O)ccc23)=N\NC(C)(C)C)cc1C
4. CCCCCCSC[C@H](OC(C)=O)[C@@H](OC(C)=O)[C@@H](OC(C)=O)[C@@H](COC(C)=O)OC(C)=O

## Result
0.05
5.2
-21.9
2.65
